target: Hfq(2-69:Q41E) (Escherichia coli, UniProt P0A6X3 2-69, Q41E); assay: fluorescence polarization

| binder | Kd |
| --- | --- |
| xtal DNA, 30 bp with three 6-bp A-tracts (dsDNA) DNA 1: CGGCAAAAAACGGCAAAAAACGGCAAAAAA DNA 2: TTTTTTGCCGTTTTTTGCCGTTTTTTGCCG | 47.1 nM |
